- Test system: UO-31 renal
- Experimental Protocol: NCI-60 one-dose screen, 48 h (100 = growth as untreated, 0 = no growth, -100 = all killed)
- Conditions: 10 µM unless noted
Compounds without any hit were thinned out: in the full panel of roughly 83,000, 20% have a hit. Active and inactive are the calls of the source. How the source made its calls: active means growth percent below 10; inactive means the rest.
Consider the following compounds and their measured growth readings.

Here are 10 compounds together with their reported answers.
>  <Compound>
COc1ccc2c(c1)NC(=O)CN2c1nc(NC2CC2)nc2ccccc12

>  <Measurement Target>
UO-31 renal

>  <growth>
28.7% (inactive)

$$$$
>  <Compound>
CC1=NN2C(=NC3=C(CCC/C3=C\c3ccc(Cl)cc3)C2c2ccc(Cl)cc2)S1 (stereo unspecified)

>  <Measurement Target>
UO-31 renal

>  <growth>
86.1% (inactive)

$$$$
>  <Compound>
COc1cc(-c2nc(-c3nc4ccccc4[nH]3)cc3c2[nH]c2ccccc23)cc(OC)c1OC

>  <Measurement Target>
UO-31 renal

>  <growth>
24.3% (inactive)

$$$$
>  <Compound>
O=Nc1c(-c2c(O)[nH]c3ccc([N+](=O)[O-])cc23)[nH]c2ccc(O)cc12

>  <Measurement Target>
UO-31 renal

>  <growth>
-1.14% (active)

$$$$
>  <Compound>
Cc1ccc(C2=NN(c3ccc(S(=O)(=O)NC(=O)NCc4ccccc4)cc3)C(c3ccc(N(C)C)cc3)C2)c(C)c1 (stereo unspecified)

>  <Measurement Target>
UO-31 renal

>  <growth>
38.3% (inactive)

$$$$
>  <Compound>
O=C(CSc1nc(-c2ccc(Cl)cc2)cn1-c1ccc(Cl)cc1)c1ccc(Br)cc1

>  <Measurement Target>
UO-31 renal

>  <growth>
45.5% (inactive)

$$$$
>  <Compound>
COC(=O)CCCCCN=Cc1c(O)c(O)c(C(C)C)c2cc(C)c(-c3c(C)cc4c(C(C)C)c(O)c(O)c(C=NCCCCCC(=O)OC)c4c3O)c(O)c12

>  <Measurement Target>
UO-31 renal

>  <growth>
19.5% (inactive)

$$$$
>  <Compound>
COc1ccc(/C=C(\C#N)c2ccc([N+](=O)[O-])cc2)c2ccccc12

>  <Measurement Target>
UO-31 renal

>  <growth>
66.5% (inactive)

$$$$
>  <Compound>
N=C(N)c1ccc(-c2ccc(-c3ccc(Cl)cc3)o2)nc1

>  <Measurement Target>
UO-31 renal

>  <growth>
-85.8% (active)

$$$$
>  <Compound>
O=C1CCC(=O)N1Cc1ccccc1

>  <Measurement Target>
UO-31 renal

>  <growth>
98.1% (inactive)

$$$$

# get_value(readout='growth', item= O=S(=O)(NCCNc1cc(-c2cn(-c3ccccc3)nc2-c2ccccc2)ccn1)c1cccc2ccccc12 ) 22.3% (inactive)

Now give it for CC1Cc2c(N(C)C)ncnc2N(C)c2ccc(Cl)cc21 (stereo unspecified) too. 59.4% (inactive)

Now give it for O=C(O)C(Cc1ccccc1)N1C(=O)/C(=C/C(Cl)=C/c2ccc([N+](=O)[O-])cc2)SC1=S (stereo unspecified) too. 29.4% (inactive)

---

- System: MDA-MB-435 melanoma
- Experimental Protocol: NCI-60 one-dose screen, 48 h
- Conditions: 10 µM unless noted
About 83,000 compounds went through this panel and 20% of them were active in at least one assay; those are over-represented in the sample as a whole. Calls of active or inactive are those of the source. The calls were made as follows: active = growth percent below 10; inactive = the rest.
Your answer must be one of the following: yes = active, no = inactive

>  <Compound>
O=C1Nc2ccc(Br)cc2C1=N/C=c1\[nH]c(=O)/c(=C/c2ccc(Cl)cc2)s1

>  <Measurement Target>
MDA-MB-435 melanoma

>  <Classification>
no

$$$$
>  <Compound>
COc1cc(C(=O)N2CCN(C(=O)c3ccco3)CC2)c(N)cc1OCc1ccccc1

>  <Measurement Target>
MDA-MB-435 melanoma

>  <Classification>
no

$$$$
>  <Compound>
Nc1c(C(=O)Nc2ccccc2)sc2nc3c(cc12)CCCCC3

>  <Measurement Target>
MDA-MB-435 melanoma

>  <Classification>
yes

$$$$
>  <Compound>
OC1CC2c3ccccc3C1c1ccccc12 (stereo not drawn)

>  <Measurement Target>
MDA-MB-435 melanoma

>  <Classification>
no

$$$$
>  <Compound>
O=S(=O)(O)CCl

>  <Measurement Target>
MDA-MB-435 melanoma

>  <Classification>
no

$$$$

Proceed to the following item.
State the result this test recorded for Nc1c(C(=O)c2ccc(F)cc2)sc2nc3c(cc12)CCCC3 . no

---

- Tested on: PC-3 prostate
- Experimental Protocol: NCI-60 one-dose screen, 48 h (100 = growth as untreated, 0 = no growth, -100 = all killed)
- Conditions: 10 µM unless noted
Compounds without any hit were thinned out: in the full panel of roughly 83,000, 20% have a hit.
Consider the following molecules and their measured growth readings.
Numeric only. Scale: %

Here are 2 molecules together with their reported answers.
>  <Molecule>
COc1ccc(/C=C2\Oc3cc(OCCN4CCCC4)ccc3C2=O)c(OC)c1

>  <Units>
%

>  <growth>
84.9

$$$$
>  <Molecule>
CC(C)CCC[C@@H](C)[C@H]1CC[C@H]2[C@@H]3CC[C@H]4C/C(=N/O)CC[C@]4(C)[C@H]3CC[C@]12C

>  <Units>
%

>  <growth>
83.4

$$$$

# get_value(readout='growth', item= O=[N+]([O-])c1cccc(-c2cc(-c3cc(Br)ccc3O)[nH]n2)c1 ) 13

Now give it for CCOC(=O)/C=C\C(=O)NC(N)=O too. 83.5

Now give it for COc1ncc(-c2ccc3ncnc(Nc4cccc(Cl)c4)c3c2)cc1NS(=O)(=O)CCN1CCOCC1 too. 12.4

Now give it for COc1cc(-c2nc(-c3nc4ccccc4[nH]3)cc3c2[nH]c2ccccc23)cc(OC)c1OC too. 14.1

Now give it for CCN(CC)CCCNc1nc(C)cc(Nc2ccc3nc(C)cc(N)c3c2)n1 too. 76

Now give it for CC(=O)C1CCC(C)=CC1=O (stereo not drawn) too. 96.3

---

- System: SF-295 CNS
- Experimental Protocol: NCI-60 one-dose screen, 48 h
- Conditions: 10 µM unless noted
This is part of a sample that, as a whole, favours compounds with a hit. Of some 83,000 tested, about 20% had one in any assay. Active and inactive are the calls of the source. How the source made its calls: active means growth percent below 10; inactive means the rest.
Your answer must be one of the following: active, inactive

Study these solved cases before continuing.
>  <Compound>
COc1cc2c(cc1OC)C1(C)N(CC2)C(=O)OC1(C)C (stereo not drawn)

>  <Classification>
inactive

$$$$
>  <Compound>
O=C1CCCCC=C1C[N+](=O)[O-]

>  <Classification>
inactive

$$$$
>  <Compound>
Cc1ccc2nc(SCn3nnc4ccccc4c3=O)[nH]c2c1

>  <Classification>
inactive

$$$$
>  <Compound>
O=C(O)c1cccc([N+](=O)[O-])c1/C=C/c1ccccc1

>  <Classification>
inactive

$$$$
>  <Compound>
COc1ccc(Cn2cc(COc3cc(/C=C/C(=O)c4cc(OC)c(OC)c(OC)c4)ccc3OC)nn2)cc1

>  <Classification>
inactive

$$$$

State the result this test recorded for Cc1cc(NC(=O)COC(=O)c2sc3cc(F)ccc3c2Cl)no1 . inactive

Now give it for Cc1cc(Nc2nc(-c3ccncc3)nc3ccccc23)n[nH]1 too. inactive

Now give it for O=C1C2=C(C(=O)c3c(O)ccc(O)c31)N(c1cccnc1)Cc1ccccc1O2 too. inactive

Now give it for COc1cccc(/C=C2\SC(N3CCN(c4ccccn4)CC3)=NC2=O)c1 too. inactive

Now give it for Nc1c(C(=O)Nc2c(Cl)cccc2Cl)sc2nc3c(cc12)CCCCC3 too. inactive

Now give it for O=C1CCCCN1CCCCC#Cc1ccccc1C#Cc1ccc([N+](=O)[O-])cc1 too. inactive

Now give it for Clc1ccc(/C=C/c2nc(N3CCOCC3)c3nc(Cl)c(Cl)cc3n2)cc1 too. inactive

Now give it for CN(C)C/C=C/C(=O)Nc1cc2c(Nc3cccc(Cl)c3F)ncnc2cc1OCCOC(F)F too. inactive

---

- Tested on: NCI-H23 lung
- Experimental Protocol: NCI-60 one-dose screen, 48 h
- Conditions: 10 µM unless noted
About 83,000 compounds went through this panel and 20% of them were active in at least one assay; those are over-represented in the sample as a whole. Calls of active or inactive are those of the source. The calls were made as follows: active = growth percent below 10; inactive = the rest.
Your answer must be one of the following: class 1 for active, class 0 for inactive

Study these solved cases before continuing.
>  <Compound>
Cc1ccc(Oc2nc3ccccc3cc2-c2nnc(Cn3c(COc4ccccc4)nc4ccccc43)o2)cc1

>  <Classification>
class 0

$$$$
>  <Compound>
O=C1NC(Cc2c[nH]c3ccccc23)C(=O)N1Cc1ccc(Cl)cc1 (stereo unspecified)

>  <Classification>
class 0

$$$$
>  <Compound>
O=[N+]([O-])c1ccc(S(=O)(=O)N2CCN(c3ccnc4cc(Cl)ccc34)CC2)c([N+](=O)[O-])c1

>  <Classification>
class 0

$$$$
>  <Compound>
Nc1c(C(=O)Nc2ccccc2)sc2nc3c(cc12)CCC3

>  <Classification>
class 0

$$$$
>  <Compound>
COc1cc(C(=O)/C=C/c2cc(C(=O)c3cc(OC)c(OC)c(OC)c3)ccc2OC)ccc1N

>  <Classification>
class 1

$$$$

Proceed to the following item.
State the result this test recorded for CCN(CC)CCSc1c2ccc(Cl)cc2nc2ccc(OC)cc12 . class 0
